# TGT: T1, native human ApoC3 (human, UniProt P02656 21-99)
# T1 construct: also called nhuApoC3; native huApoC3
# PROCEDURE SUMMARY: SPR, ApoC3 over captured IgG1, pH 5.5
Record form. Attribute: Ka. Fill in for each entry.
# unit: M⁻¹ | format: bare number

Exercise: Would you mind telling me what Ka value was observed for mAb19 (antibody, IgG1, V domains shown, Produced as full length IgG1 (kappa) in ExpiCHO-S cells; also called humanized anti-ApoC3 antibody mAb19) VH: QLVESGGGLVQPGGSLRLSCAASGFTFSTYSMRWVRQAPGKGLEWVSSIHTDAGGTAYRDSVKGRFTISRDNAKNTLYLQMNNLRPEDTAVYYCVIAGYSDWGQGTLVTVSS VL: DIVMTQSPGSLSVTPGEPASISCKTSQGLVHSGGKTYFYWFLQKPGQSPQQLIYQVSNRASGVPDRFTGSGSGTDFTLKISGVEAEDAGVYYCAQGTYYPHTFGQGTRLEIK ?
Solution: 6.37e+06

Exercise: Would you mind telling me what Ka value was observed for mAb9 (antibody, IgG1, V domains shown, Produced as full length IgG1 (kappa) in ExpiCHO-S cells; also called humanized anti-ApoC3 antibody mAb9) VH: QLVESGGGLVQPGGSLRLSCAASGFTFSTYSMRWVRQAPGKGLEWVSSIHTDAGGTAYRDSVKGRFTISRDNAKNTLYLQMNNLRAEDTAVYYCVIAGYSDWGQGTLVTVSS VL: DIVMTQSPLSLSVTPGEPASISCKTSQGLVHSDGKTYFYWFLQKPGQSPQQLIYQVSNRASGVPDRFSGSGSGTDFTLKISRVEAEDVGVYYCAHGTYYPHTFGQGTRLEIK ?
Solution: 1.85e+06

Exercise: Would you mind telling me what Ka value was observed for mAb8 (antibody, IgG1, V domains shown, Produced as full length IgG1 (kappa) in ExpiCHO-S cells; also called humanized anti-ApoC3 antibody mAb8) VH: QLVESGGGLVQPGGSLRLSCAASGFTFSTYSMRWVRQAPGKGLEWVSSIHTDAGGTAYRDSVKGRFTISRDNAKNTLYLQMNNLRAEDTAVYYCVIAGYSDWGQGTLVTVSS VL: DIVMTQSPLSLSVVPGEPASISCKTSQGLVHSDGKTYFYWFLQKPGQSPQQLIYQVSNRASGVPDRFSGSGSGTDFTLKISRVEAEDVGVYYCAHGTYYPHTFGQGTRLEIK ?
Solution: 4.13e+06

Exercise: Would you mind telling me what Ka value was observed for mAb11 (antibody, IgG1, V domains shown, Produced as full length IgG1 (kappa) in ExpiCHO-S cells; also called humanized anti-ApoC3 antibody mAb11) VH: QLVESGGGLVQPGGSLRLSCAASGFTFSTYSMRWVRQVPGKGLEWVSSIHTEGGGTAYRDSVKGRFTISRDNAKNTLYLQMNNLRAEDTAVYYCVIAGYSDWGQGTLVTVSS VL: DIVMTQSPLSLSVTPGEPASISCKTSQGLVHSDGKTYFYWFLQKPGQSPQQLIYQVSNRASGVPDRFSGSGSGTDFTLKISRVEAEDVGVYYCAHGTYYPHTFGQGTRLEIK ?
Solution: 1.99e+06

Exercise: Would you mind telling me what Ka value was observed for mAb2 (antibody, IgG1, V domains shown, Produced as full length IgG1 (kappa) in ExpiCHO-S cells; also called humanized anti-ApoC3 antibody mAb2) VH: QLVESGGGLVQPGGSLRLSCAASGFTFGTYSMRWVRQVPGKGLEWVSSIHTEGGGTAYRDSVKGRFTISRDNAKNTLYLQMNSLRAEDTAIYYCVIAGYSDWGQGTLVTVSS VL: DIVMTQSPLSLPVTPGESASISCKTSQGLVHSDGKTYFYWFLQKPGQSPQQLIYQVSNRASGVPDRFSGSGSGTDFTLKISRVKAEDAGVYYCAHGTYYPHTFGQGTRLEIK ?
Solution: 3.44e+06

Exercise: Would you mind telling me what Ka value was observed for mAb17 (antibody, IgG1, V domains shown, Produced as full length IgG1 (kappa) in ExpiCHO-S cells; also called humanized anti-ApoC3 antibody mAb17) VH: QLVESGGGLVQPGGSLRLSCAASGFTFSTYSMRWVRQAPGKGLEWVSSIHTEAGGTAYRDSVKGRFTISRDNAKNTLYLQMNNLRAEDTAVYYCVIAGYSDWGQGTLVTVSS VL: DIVMTQSPLSLPVTPGEPASISCKTSQGLVHSGGKTYFYWFLQKPGQSPQQLIYQVSNRASGVPDRFTGSGSGTDFTLKISRVEAEDAGVYYCAQGTYYPHTFGQGTRLEIK ?
Solution: 3.89e+06

Exercise: Would you mind telling me what Ka value was observed for mAb3 (antibody, IgG1, V domains shown, Produced as full length IgG1 (kappa) in ExpiCHO-S cells; also called humanized anti-ApoC3 antibody mAb3) VH: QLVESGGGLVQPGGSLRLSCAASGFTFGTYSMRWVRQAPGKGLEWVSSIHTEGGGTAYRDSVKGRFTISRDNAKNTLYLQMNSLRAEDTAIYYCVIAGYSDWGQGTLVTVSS VL: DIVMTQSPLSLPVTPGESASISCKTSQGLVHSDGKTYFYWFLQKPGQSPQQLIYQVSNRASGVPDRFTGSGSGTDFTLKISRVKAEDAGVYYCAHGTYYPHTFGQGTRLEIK ?
Solution: 3.09e+06

Exercise: Would you mind telling me what Ka value was observed for mAb4 (antibody, IgG1, V domains shown, Produced as full length IgG1 (kappa) in ExpiCHO-S cells; also called humanized anti-ApoC3 antibody mAb4) VH: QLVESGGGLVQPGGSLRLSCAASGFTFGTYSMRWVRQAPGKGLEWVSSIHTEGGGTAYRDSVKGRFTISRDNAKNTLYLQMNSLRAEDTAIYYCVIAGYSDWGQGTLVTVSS VL: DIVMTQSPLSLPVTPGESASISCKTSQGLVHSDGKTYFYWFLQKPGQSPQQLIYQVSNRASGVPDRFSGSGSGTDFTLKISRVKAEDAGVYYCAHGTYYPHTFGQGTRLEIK ?
Solution: 2.32e+06

Exercise: Would you mind telling me what Ka value was observed for mAb10 (antibody, IgG1, V domains shown, Produced as full length IgG1 (kappa) in ExpiCHO-S cells; also called humanized anti-ApoC3 antibody mAb10) VH: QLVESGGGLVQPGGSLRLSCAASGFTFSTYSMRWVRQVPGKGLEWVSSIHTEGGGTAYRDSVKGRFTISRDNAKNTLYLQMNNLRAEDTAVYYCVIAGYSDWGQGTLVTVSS VL: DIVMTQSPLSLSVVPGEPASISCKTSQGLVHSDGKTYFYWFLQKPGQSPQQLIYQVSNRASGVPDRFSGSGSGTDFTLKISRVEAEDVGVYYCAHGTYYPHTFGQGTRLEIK ?
Solution: 2.99e+06

Exercise: Would you mind telling me what Ka value was observed for mAb6 (antibody, IgG1, V domains shown, Produced as full length IgG1 (kappa) in ExpiCHO-S cells; also called humanized anti-ApoC3 antibody mAb6) VH: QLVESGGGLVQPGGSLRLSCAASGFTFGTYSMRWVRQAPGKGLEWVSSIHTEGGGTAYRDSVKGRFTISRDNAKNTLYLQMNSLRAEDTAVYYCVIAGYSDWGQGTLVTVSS VL: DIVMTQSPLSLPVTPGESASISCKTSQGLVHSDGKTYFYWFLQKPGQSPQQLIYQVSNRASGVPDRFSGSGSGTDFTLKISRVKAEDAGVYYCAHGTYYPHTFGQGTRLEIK ?
Solution: 1.16e+06
